Test system: PC15
Assay: qHTS profiling for inhibitors of Plasmodium falciparum proliferation (AID 504749); also: nearly all actives have a fitted effect of over 60% in size
Details: P. falciparum in erythrocytes, SYBR Green DNA, 72 h; series mostly up to 28.7 µM
Records with an inconclusive call do not appear. Active and inactive are the calls of the source. Calls follow the shape of the dose curve; as a rule, active = well fitted inhibition curve with a large enough effect; inconclusive = small, poorly fitted or top-dose-only effect; inactive = flat fitted curve, though single readings scatter.
Answer with one of the outcomes true (active), false (inactive)

Use the examples below as a reference point.
{"compound": "O=C(CCCN1CCN2CCCC2C1)c1ccc(F)cc1 (stereo unspecified)", "qualitative_label": "false"}
{"compound": "O=S(=O)(O)CC(S)CS (stereo unspecified)", "qualitative_label": "false"}
{"compound": "COC(=O)[C@@H](N)CS", "qualitative_label": "false"}
{"compound": "COc1cc(S(C)=O)ccc1-c1nc2ncccc2[nH]1 (stereo unspecified)", "qualitative_label": "false"}
{"compound": "Cc1cc(-c2ccc(N=Nc3c(S(=O)(=O)O)cc4cc(S(=O)(=O)O)cc(N)c4c3O)c(C)c2)ccc1N=Nc1c(S(=O)(=O)O)cc2cc(S(=O)(=O)O)cc(N)c2c1O", "qualitative_label": "false"}

Kindly provide the recorded test outcome for the following compound: CS(=O)(=O)c1ccc([C@@H](O)[C@@H](COC(=O)CN)NC(=O)C(Cl)Cl)cc1
false

Please let me know the test result on file for C=C1C(CCl)(CCl)C2(Cl)C(Cl)C(Cl)C1(Cl)C2(Cl)Cl (stereo unspecified) .
true

Look up the recorded call for Cc1ncc(C[n+]2csc(CCOP(=O)(O)O)c2C)c(N)n1 in this test.
false

Hi, sorry to bother you, what did the test record for CC(C)[C@H](N)C(=O)OCC(CO)OCn1cnc2c(=O)[nH]c(N)nc21 (stereo partly specified) ?
false

Would you mind telling me which call this test gave CN(C)CCCSc1ccccc1NC(=O)/C=C/c1ccccc1 ?
false

Recorded test call requested for CN1CCC(OC(=O)C(Oc2ccc(Cl)cc2)Oc2ccc(Cl)cc2)CC1
false

Please share the test call associated with CNC(=O)[C@H](Cc1c[nH]c2ccccc12)NC(=O)[C@@H](CC(=O)NO)CC(C)C .
false

Please share the test call associated with CNC(=O)C[C@@H](N)C(=O)N[C@@H](C(=O)N[C@@H]1C(=O)N2[C@@H]1SC(C)(C)[C@@H]2C(=O)O)c1ccc(O)cc1 .
false

Query: recorded result category for CNC(=O)OCc1cccc(COC(=O)NC)n1 in this test
false

Identify the outcome logged in this assay for the compound shown: Cc1ccc(S(=O)(=O)O)cc1C
false

Record lookup: outcome of this test for CCCCCCCCCCCCCCCCCC(=O)OCC(C)O (stereo unspecified) ?
false

Per the records of this test, what outcome belongs to CC(CNC(=O)c1cccnc1)NC(=O)c1cccnc1 (stereo unspecified) ?
false

Assay outcome for CN1C(=O)C[C@@H](C(=O)N[C@@H](Cc2cnc[nH]2)C(=O)N2CCC[C@H]2C(N)=O)NC1=O : what was it?
false

Identify the outcome logged in this assay for the compound shown: O=P(O)(O)O
false

// outcome(item) with item = [O-][N+](=Nc1ccccc1)c1ccccc1
false

How was COc1cc2c(cc1OC)[C@@H](Cc1cc(OC)c(OC)c(OC)c1)[N+](C)(CCCOC(=O)CC/C=C/CCC(=O)OCCC[N+]1(C)CCc3cc(OC)c(OC)cc3[C@H]1Cc1cc(OC)c(OC)c(OC)c1)CC2 (stereo partly specified) classified in this test?
false
